- ASSAY OVERVIEW: Antiproliferative activity against human non-small cell lung cancer cells after 48 hrs by sulforhodamine B assay
- Type: functional
- PROTOCOL CONDITIONS: Cancer cell lines
OBSERVED PROPERTY: GI50 (nM)

1. COc1ccc(-c2cc(-c3cccc(NS(C)(=O)=O)c3)nc(N)c2C#N)cc1 130
2. CS(=O)(=O)Nc1cccc(-c2cc(-c3ccccc3Cl)c(C#N)c(N)n2)c1 1100
3. CN(C)c1ccc(-c2cc(-c3cccc(NS(C)(=O)=O)c3)nc(N)c2C#N)cc1 60
4. COc1cccc(-c2cc(-c3cccc(NS(C)(=O)=O)c3)nc(N)c2C#N)c1O 250

====

- ASSAY OVERVIEW: Antiproliferative activity against human CNS cancer cells after 48 hrs by sulforhodamine B assay
- Type: functional
- PROTOCOL CONDITIONS: Cancer cell lines
OBSERVED PROPERTY: GI50 (nM)

1. COc1ccc(-c2cc(-c3cccc(NS(C)(=O)=O)c3)nc(N)c2C#N)cc1 80
2. CS(=O)(=O)Nc1cccc(-c2cc(-c3ccccc3Cl)c(C#N)c(N)n2)c1 510
3. CN(C)c1ccc(-c2cc(-c3cccc(NS(C)(=O)=O)c3)nc(N)c2C#N)cc1 40
4. COc1cccc(-c2cc(-c3cccc(NS(C)(=O)=O)c3)nc(N)c2C#N)c1O 160

====

- ASSAY OVERVIEW: Antiproliferative activity against human prostate cancer cells after 48 hrs by sulforhodamine B assay
- Type: functional
- PROTOCOL CONDITIONS: Cancer cell lines
This section presents compounds with their documented GI50 values.
OBSERVED PROPERTY: GI50

1) CN(C)c1ccc(-c2cc(-c3cccc(NS(C)(=O)=O)c3)nc(N)c2C#N)cc1 30 nM
2) COc1ccc(-c2cc(-c3cccc(NS(C)(=O)=O)c3)nc(N)c2C#N)cc1 130 nM
3) COc1cccc(-c2cc(-c3cccc(NS(C)(=O)=O)c3)nc(N)c2C#N)c1O 130 nM
4) CS(=O)(=O)Nc1cccc(-c2cc(-c3ccccc3Cl)c(C#N)c(N)n2)c1 780 nM

====

This section presents compounds with their documented GI50 values.
- ASSAY OVERVIEW: Antiproliferative activity against human melanoma cells after 48 hrs by sulforhodamine B assay
- Type: functional
- PROTOCOL CONDITIONS: Melanoma cell
OBSERVED PROPERTY: GI50 (nM)

1. COc1cccc(-c2cc(-c3cccc(NS(C)(=O)=O)c3)nc(N)c2C#N)c1O 120
2. CS(=O)(=O)Nc1cccc(-c2cc(-c3ccccc3Cl)c(C#N)c(N)n2)c1 660
3. COc1ccc(-c2cc(-c3cccc(NS(C)(=O)=O)c3)nc(N)c2C#N)cc1 80
4. CN(C)c1ccc(-c2cc(-c3cccc(NS(C)(=O)=O)c3)nc(N)c2C#N)cc1 60
